# Test Method Notes: amyloid nucleation score (Sup35N fusion, yeast selection) (log enrichment); library NNK1; higher = more nucleation; inactive = no reads after selection;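 note: zero at mode of non-aggregating sequences after 7 days selection at 30°C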
Classification field: enter true for amyloid nucleation score values not below 0.2, false for values below it.

Exercise: Assess whether reported amyloid nucleation score for NISSQEPISRAATSRKVAGQ sits at 0.2 or higher.
Solution: true

###

# Test Method Notes: amyloid nucleation score (Sup35N fusion, yeast selection) (log enrichment); library NNK2; higher = more nucleation; inactive = no reads after selection
Classification field: enter condition met for amyloid nucleation score values not below 0.8, condition not met for values below it.

Reference set, count: 6
Exercise: Assess whether reported amyloid nucleation score for MFDFCPIMTLF sits at 0.8 or higher.
Solution: condition not met

Exercise: Assess whether reported amyloid nucleation score for RLRGFIPLCTYIFPNFRGLL sits at 0.8 or higher.
Solution: condition not met

Exercise: Assess whether reported amyloid nucleation score for LWIVMVVRTTQQTYATMGHG sits at 0.8 or higher.
Solution: condition met

Exercise: Assess whether reported amyloid nucleation score for ANCATSVLCCSGCV sits at 0.8 or higher.
Solution: condition met

Exercise: Assess whether reported amyloid nucleation score for TDVIYYGYLSRRLQVYVLPS sits at 0.8 or higher.
Solution: condition not met

Exercise: Assess whether reported amyloid nucleation score for LSQARVYLCYFEFSYFVVEP sits at 0.8 or higher.
Solution: condition met

More entries:
Exercise: Assess whether reported amyloid nucleation score for SNHVKCGWICKFSLRIQSVY sits at 0.8 or higher.
Solution: condition not met

Exercise: Assess whether reported amyloid nucleation score for WGCNSNELSCRLYVVNYSGW sits at 0.8 or higher.
Solution: condition not met

Exercise: Assess whether reported amyloid nucleation score for QCFIWSHRVIVGFHGLGLSA sits at 0.8 or higher.
Solution: condition not met

Exercise: Assess whether reported amyloid nucleation score for TGALHWVNAYVLFRKVCKGM sits at 0.8 or higher.
Solution: condition not met

Exercise: Assess whether reported amyloid nucleation score for FGFLPSVIWEASDIGSDCLE sits at 0.8 or higher.
Solution: condition not met

Exercise: Assess whether reported amyloid nucleation score for WVVNRTQGYGRLSSGDEEVP sits at 0.8 or higher.
Solution: condition met

Exercise: Assess whether reported amyloid nucleation score for LLYTSWLV sits at 0.8 or higher.
Solution: condition not met

###

# Test Method Notes: amyloid nucleation score (Sup35N fusion, yeast selection) (log enrichment); library NNK1; higher = more nucleation; inactive = no reads after selection
Assay Endpoint: amyloid nucleation score

Study these solved cases before continuing.
Exercise: Record request: amyloid nucleation score value, item NGNNQYRPVCDYSYYRRSCS
Solution: -0.234

Exercise: Record request: amyloid nucleation score value, item SNLHNCLRGNGCWVIAIDVV
Solution: -0.251

Exercise: Record request: amyloid nucleation score value, item GFVSAKLIPCAVLQKGLLPV
Solution: 0.313

Exercise: Record request: amyloid nucleation score value, item TISLDRRDAVNYLVAHLCSV
Solution: -0.146

Exercise: Record request: amyloid nucleation score value, item MRVVPHVWLTWHEATVVLQV
Solution: 0.807

More entries:
Exercise: Record request: amyloid nucleation score value, item GPKKTLMFPSFISDSCARKG
Solution: 0.535

Exercise: Record request: amyloid nucleation score value, item NMLGSFPLTVLRKAWCCGSL
Solution: 1.04

Exercise: Record request: amyloid nucleation score value, item HRITSFVYYFGLSSEFYIYP
Solution: 0.009

Exercise: Record request: amyloid nucleation score value, item CFSLLNYSCFSCIDLFHPLY
Solution: 5.23

###

Each entry below carries its reported amyloid nucleation score.
# Test Method Notes: amyloid nucleation score (Sup35N fusion, yeast selection) (log enrichment); library NNK3; higher = more nucleation; inactive = no reads after selection
Reply with the value as a number alone.

Exercise: Record request: amyloid nucleation score value, item LLYYSSINYFLLLGFCSEEL
Solution: 1.51

More entries:
Exercise: Record request: amyloid nucleation score value, item SCEFYDSVLWSYFKMAMFAL
Solution: -0.698

Exercise: Record request: amyloid nucleation score value, item FMYMMFERQLPMWDNELLH
Solution: -0.251

Exercise: Record request: amyloid nucleation score value, item FCAVALFFNTSVSFIDRSLP
Solution: 1.66

###

# Test Method Notes: amyloid nucleation score (Sup35N fusion, yeast selection) (log enrichment); library NNK2; higher = more nucleation; inactive = no reads after selection
Class key for amyloid nucleation score values: band A: < 0.1; band B: ≥ 0.1 and < 1; band C: ≥ 1

Exercise: Record SAIDWDFQTIFLLSEFQYGF — which class?
Solution: band A

Exercise: Record QEELSWSS — which class?
Solution: band B

Exercise: Record DLEVLSLGGINFFVVDTFMI — which class?
Solution: band B

Exercise: Record SPWGPLLAFTSKTNPIQWMT — which class?
Solution: band A

Exercise: Record ICWPSLLYAPGTVKMSTERV — which class?
Solution: band B

###

Each entry below carries its reported amyloid nucleation score.
# Test Method Notes: amyloid nucleation score (Sup35N fusion, yeast selection) (log enrichment); library NNK1; higher = more nucleation; inactive = no reads after selection
Reply with the value as a number alone.

Study these solved cases before continuing.
Exercise: Record request: amyloid nucleation score value, item YSCMGECFTC
Solution: 7.89

Exercise: Record request: amyloid nucleation score value, item VILSYRLSEWGSSGDGDGRR
Solution: -0.562

Exercise: Record request: amyloid nucleation score value, item ITGPIEGGVTK
Solution: -0.118

Exercise: Record request: amyloid nucleation score value, item SVYVLSRGAVSMSVWHR
Solution: 3.64

Exercise: Record request: amyloid nucleation score value, item KTSCQSFVGR
Solution: -0.403

Exercise: Record request: amyloid nucleation score value, item EVSLVVYTYVF
Solution: 0.697

Exercise: Record request: amyloid nucleation score value, item GFTSHFRYLWHILIRYWSNP
Solution: 0.442

Exercise: Record request: amyloid nucleation score value, item SRVFRLVFKPSYGSLTRRCR
Solution: -0.904

Exercise: Record request: amyloid nucleation score value, item MLRTQQFSLLFEYHVHGEGG
Solution: 3.75

Exercise: Record request: amyloid nucleation score value, item INDYMLYGVLAYILGHGTVQ
Solution: 0.622

More entries:
Exercise: Record request: amyloid nucleation score value, item WNDYAHILLKKRGGRYNLAG
Solution: -0.907

Exercise: Record request: amyloid nucleation score value, item IFFFKEYCFMQVIRGFVCN
Solution: -0.265

Exercise: Record request: amyloid nucleation score value, item ITPYQQFWLIVDTIGNMMEI
Solution: 2.07

Exercise: Record request: amyloid nucleation score value, item LAVDMQRF
Solution: 0.224

Exercise: Record request: amyloid nucleation score value, item PLAMNSFVIVIDGRLHVLGD
Solution: 4.72

Exercise: Record request: amyloid nucleation score value, item YLTQLV
Solution: 0.528

Exercise: Record request: amyloid nucleation score value, item FADAASNPNAII
Solution: 0.071

###

# Test Method Notes: amyloid nucleation score (Sup35N fusion, yeast selection) (log enrichment); library NNK3; higher = more nucleation; inactive = no reads after selection
Assay Endpoint: amyloid nucleation score

Study these solved cases before continuing.
Exercise: Record request: amyloid nucleation score value, item ALNFPYSSRVFYFKDSAHAF
Solution: inactive

Exercise: Record request: amyloid nucleation score value, item WLVGFLFILWV
Solution: inactive

Exercise: Record request: amyloid nucleation score value, item VRQKALRNPQL
Solution: inactive

Exercise: Record request: amyloid nucleation score value, item TWVTAGYCVNIYRTRSWMK
Solution: inactive

More entries:
Exercise: Record request: amyloid nucleation score value, item MSLNLHLKQGVFKGHTVSAL
Solution: inactive

Exercise: Record request: amyloid nucleation score value, item ITAVVVSDMYH
Solution: inactive

Exercise: Record request: amyloid nucleation score value, item ILIDSGSTLFSIIFQGLLLI
Solution: inactive

Exercise: Record request: amyloid nucleation score value, item YSSGSFCLFKWSIHR
Solution: 1.65

Exercise: Record request: amyloid nucleation score value, item TDLGSVGGW
Solution: -0.206

###

# Test Method Notes: amyloid nucleation score (Sup35N fusion, yeast selection) (log enrichment); library NNK2; higher = more nucleation; inactive = no reads after selection
Class key for amyloid nucleation score values: bin 1 = under -0.08, bin 2 = from -0.08 up to 0.9, bin 3 = 0.9 and over

Reference set, count: 8
Exercise: Record HAYFFLRDRVRCSIFVIVTT — which class?
Solution: bin 1

Exercise: Record FTCFFLVLRVKSLLMVSAVG — which class?
Solution: bin 3

Exercise: Record SIGTGRAESL — which class?
Solution: bin 2

Exercise: Record TMLFRRFYSFMSTL — which class?
Solution: bin 2

Exercise: Record YSEVTVRSSAAL — which class?
Solution: bin 2

Exercise: Record CSSYHLEYKCYKHLLWFQSR — which class?
Solution: bin 1

Exercise: Record MYLTCFWVGQDGKGRKDGGV — which class?
Solution: bin 3

Exercise: Record LCYWPYDSVYLLTRFTVNGF — which class?
Solution: bin 1

Attention now turns to another entry.
Exercise: Record VIDGNKDGSMTFPVQGDALR — which class?
Solution: bin 3
